viability, T/C values by entry
tested on: 653999-131-R-J2-PDC complex spheroids, growth % test/control; experiment: Anticancer human tumor 653999-131-R-J2-PDC patient-derived lung adenocarcinoma cell line growth inhibition [AhR]; conditions: second compound 0.316 µM; first compound 0.316 µM; stronger effect = lower value
Just the number in %, nothing appended.

What value of viability, T/C has been reported for the following compound? CC1COCCN1c1cc(-c2ccnn2C)c2ccnc(-c3ccn[nH]3)c2n1 (stereo unspecified) + Cc1ccccc1N=Nc1ccc(NC(=O)c2ccnn2C)c(C)c1
36.6

----------
tested on: 653999-131-R-J2-PDC complex spheroids, growth % test/control; assay: Anticancer human tumor 653999-131-R-J2-PDC cell line growth inhibition [AhR]; conditions: second compound 10 µM; first compound 1 µM; active = viability on the fitted dose curve at most 10% of control; inactive = the rest;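 further: spheroids exposed to agents for seven days; 100% = DMSO vehicle control viability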
Respond with a class label; see active, inactive

I'd appreciate the recorded outcome for Nc1ccccc1NC(=O)c1ccc(CNC(=O)OCc2cccnc2)cc1 + Cc1cncc(-c2nc(NCCc3c[nH]c4ccccc34)c3ncn(C(C)C)c3n2)c1 from this test.
inactive
